System: 518A2 melanoma cells
procedure summary: MTT cell viability assay, 518A2 melanoma
Format: cell-based
assay conditions: Homo sapiens, 518A2, 24 h exposure, read-out: Inhibitory concentration IC50
observation type: IC50 (nM)

• CC1=C(/C=C/C(C)=C/C=C/C(C)=C/C(=O)O[C@@H]2C3=C(C)C4(CC4)[C@@](C)(O)C(=O)C3=CC2(C)C)C(C)(C)CCC1 [Compound 2, illudin M retinoate] = 5000
• CC1=C2C(=CC(C)(C)[C@@H]2O)C(=O)[C@](C)(O)C12CC2 = 40

###

System: primary astrocytes
procedure summary: MTT cell viability assay, primary astrocytes
Type: cell-based
assay conditions: Mus musculus, Astrocyte, 24 h exposure, read-out: Inhibitory concentration IC50
pIC50: −log10 of the molar value.
// values below are reported pIC50
observation type: pIC50

- CC1=C(/C=C/C(C)=C/C=C/C(C)=C/C(=O)O[C@@H]2C3=C(C)C4(CC4)[C@@](C)(O)C(=O)C3=CC2(C)C)C(C)(C)CCC1 [Compound 2, illudin M retinoate]: 4.35
- CC1=C2C(=CC(C)(C)[C@@H]2O)C(=O)[C@](C)(O)C12CC2 [Compound 1, illudin M]: 5.82

###

// values below are reported pIC50
Test system: C6 astrocytoma cells
procedure summary: MTT cell viability assay, C6 astrocytoma
Assay type: cell-based
assay conditions: Rattus norvegicus, C6, 24 h exposure, read-out: Inhibitory concentration IC50
pIC50: −log10 of the molar value.
observation type: pIC50

* CC1=C2C(=CC(C)(C)[C@@H]2O)C(=O)[C@](C)(O)C12CC2 [Compound 1, illudin M] | 6.00
* CC1=C(/C=C/C(C)=C/C=C/C(C)=C/C(=O)O[C@@H]2C3=C(C)C4(CC4)[C@@](C)(O)C(=O)C3=CC2(C)C)C(C)(C)CCC1 [Compound 2, illudin M retinoate] | 4.40

###

// values below are reported IC50
Test system: HT-29 colon carcinoma cells
procedure summary: MTT cell viability assay, HT-29 colon carcinoma
Assay type: cell-based
assay conditions: Homo sapiens, HT-29, 24 h exposure, read-out: Inhibitory concentration IC50
observation type: IC50 (µM)

• CC1=C2C(=CC(C)(C)[C@@H]2O)C(=O)[C@](C)(O)C12CC2 = 1.5
• CC1=C(/C=C/C(C)=C/C=C/C(C)=C/C(=O)O[C@@H]2C3=C(C)C4(CC4)[C@@](C)(O)C(=O)C3=CC2(C)C)C(C)(C)CCC1 [Compound 2, illudin M retinoate] = 38

###

// values below are reported pIC50
System: HL60 leukemia cells
procedure summary: MTT cell viability assay, HL60 leukemia
Type: cell-based
assay conditions: Homo sapiens, HL-60, HL60, 48 h exposure, read-out: Inhibitory concentration IC50
pIC50: −log10 of the molar value.
observation type: pIC50

- CC1=C(/C=C/C(C)=C/C=C/C(C)=C/C(=O)O[C@@H]2C3=C(C)C4(CC4)[C@@](C)(O)C(=O)C3=CC2(C)C)C(C)(C)CCC1 [Compound 2, illudin M retinoate]: 5.35
- CC1=C2C(=CC(C)(C)[C@@H]2O)C(=O)[C@](C)(O)C12CC2: 9.00

###

Tested on: MZ-54 glioblastoma cells
procedure summary: MTT cell viability assay, MZ-54 glioblastoma
Type: cell-based
assay conditions: Homo sapiens, MZ-54, 48 h exposure, read-out: Inhibitory concentration IC50
pIC50: −log10 of the molar value.
observation type: pIC50

• CC1=C2C(=CC(C)(C)[C@@H]2O)C(=O)[C@](C)(O)C12CC2 = 7.22
• CC1=C(/C=C/C(C)=C/C=C/C(C)=C/C(=O)O[C@@H]2C3=C(C)C4(CC4)[C@@](C)(O)C(=O)C3=CC2(C)C)C(C)(C)CCC1 [Compound 2, illudin M retinoate] = 5.26
